Procedure Text: MTT assay: HT22 cell viability with compound alone
Type: cell-based, mouse
Condition Details: mouse, HT22 cells; HT22 cell viability after 24 h of treatment with 5 μM compound, no Aβ
Test Readout: viability at 24 h, 5 µM

Documented viability at 24 h, 5 µM of `CCOc1ccc(-n2c(SCC(=O)Nc3ccc(OC)c(OC)c3)nc3sc4c(c3c2=O)CCN(C(C)=O)C4)cc1` : 95%

Documented viability at 24 h, 5 µM of `CCOc1ccc(-n2c(SCC(=O)NCc3ccccc3)nc3sc4c(c3c2=O)CCN(C(C)=O)C4)cc1` : 109%

Documented viability at 24 h, 5 µM of `CCOc1ccc(-n2c(SCC(=O)N3CCN(Cc4ccccc4)CC3)nc3sc4c(c3c2=O)CCN(C(C)=O)C4)cc1` : 113%

Documented viability at 24 h, 5 µM of `CCOc1ccc(-n2c(SCC(=O)N3CCN(c4ccccc4)CC3)nc3sc4c(c3c2=O)CCN(C(C)=O)C4)cc1` : 97%

Documented viability at 24 h, 5 µM of `CCOc1ccc(-n2c(SCC(=O)NCc3ccc(C)cc3)nc3sc4c(c3c2=O)CCN(C(C)=O)C4)cc1` : 96%

Documented viability at 24 h, 5 µM of `CCOc1ccc(-n2c(SCC(=O)N3CCC(c4ccccc4)CC3)nc3sc4c(c3c2=O)CCN(C(C)=O)C4)cc1` : 86%

Documented viability at 24 h, 5 µM of `CCOc1ccc(-n2c(SCC(=O)Nc3ccc(Cl)cc3)nc3sc4c(c3c2=O)CCN(C(C)=O)C4)cc1` : 107%

----------
Procedure Text: Liver microsomal stability
Format: in vitro ADME
Condition Details: human, liver microsomes, 1 µM compound, 0.5 mg/mL microsomes, 30 min, 37 °C; read-out: Human Liver Microsomal Stability (% remaining after 30 min)
Test Readout: remaining at 0.5 h, 1 µM (%)
Answer in %, number only, no unit symbol.

Documented remaining at 0.5 h, 1 µM of CCOc1ccc(-n2c(SCC(=O)N3CCN(c4ccccc4)CC3)nc3sc4c(c3c2=O)CCN(C(C)=O)C4)cc1 [Compound 44] : 15.3

Documented remaining at 0.5 h, 1 µM of CCOc1ccc(-n2c(SCC(=O)NCc3ccccc3)nc3sc4c(c3c2=O)CCN(C)C4)cc1 [Compound 49] : 87.9

Documented remaining at 0.5 h, 1 µM of CCOc1ccc(-n2c(SCC(=O)NCc3ccc(Cl)cc3)nc3sc4c(c3c2=O)CCN(C)C4)cc1 [Compound 52] : 67.6

Documented remaining at 0.5 h, 1 µM of CCOc1ccc(-n2c(SCC(=O)N3CCC(c4ccccc4)CC3)nc3sc4c(c3c2=O)CCN(C(C)=O)C4)cc1 [Compound 46] : 6.6

Documented remaining at 0.5 h, 1 µM of CCOc1ccc(-n2c(SCC(=O)NCc3ccc(Cl)cc3)nc3sc4c(c3c2=O)CCN(C(C)=O)C4)cc1 [Compound 34] : 0

Documented remaining at 0.5 h, 1 µM of CCOc1ccc(-n2c(SCC(=O)NC3CCN(C)CC3)nc3sc4c(c3c2=O)CCN(C(C)=O)C4)cc1 [Compound 30] : 99.1

----------
Procedure Text: Pharmacokinetic study in SD male rats
Format: in vivo, rat
Condition Details: Sprague-Dawley, rat, plasma, oral vs intravenous, 10 mg/kg, n = 5, Table S3, read-out: F (bioavailability)
Test Readout: bioavailability (%)
Answer in %, number only, no unit symbol.

Documented bioavailability of CCOc1ccc(-n2c(SCC(=O)Nc3ccc(OC)c(OC)c3)nc3sc4c(c3c2=O)CCN(C(C)=O)C4)cc1 [Compound 7] : 37.3
